Values were extracted from paper PMC4965013.

tested on: P. falciparum 3D7 trophozoites; test: Metabolomic fingerprint profiling LC-MS; assay type: cell-based, Plasmodium falciparum; conditions: metabolite UMP; S2 Table Metabolomics, change in metabolite level after compound treatment
Readout label: UMP
The response must contain the number and no unit.

**Query** Please state recorded UMP (tested on P. falciparum 3D7 trophozoites) of O=C1C(O)=C([C@H]2CC[C@H](c3ccc(Cl)cc3)CC2)C(=O)c2ccccc21 [Atovaquone, reference compound]
**Result** -0.8555

**Query** Please state recorded UMP (tested on P. falciparum 3D7 trophozoites) of CCOC(=O)c1cn(CC)c2cc(N3CCCCC3)c(F)cc2c1=O
**Result** -1.447

**Query** Please state recorded UMP (tested on P. falciparum 3D7 trophozoites) of COc1ccccc1CNC(=O)CCn1c(=O)[nH]c2ccsc2c1=O
**Result** 0.4511

**Query** Please state recorded UMP (tested on P. falciparum 3D7 trophozoites) of CCOC(=O)c1cn(CC)c2cc(N(C)CCc3ccc(OC)c(OC)c3)c(F)cc2c1=O
**Result** -0.8829

**Query** Please state recorded UMP (tested on P. falciparum 3D7 trophozoites) of Cc1ccc(Nc2nc(NCCO)c3ccccc3n2)cc1C
**Result** -0.2063

**Query** Please state recorded UMP (tested on P. falciparum 3D7 trophozoites) of Cc1cc(NC(=O)C2c3ccccc3C(=O)N(CC(C)C)C2c2cccs2)no1 (stereo not drawn)
**Result** -0.6265

**Query** Please state recorded UMP (tested on P. falciparum 3D7 trophozoites) of COc1ccc(C=C2SC(=N)N(c3ccccc3OC)C2=O)cc1
**Result** -0.8809

**Query** Please state recorded UMP (tested on P. falciparum 3D7 trophozoites) of CC(C)(C)c1ccc(O)c(CNC2CCCCC2)c1
**Result** -0.1897

**Query** Please state recorded UMP (tested on P. falciparum 3D7 trophozoites) of CCCCCCOC(=O)C1=C(C)NC(=O)NC1c1ccccc1F (stereo not drawn)
**Result** 0.7368
